Origin of values: patent US20240246954A1

molecular target: Avi-KRAS G12D/Q25A (1-169) GppNHp/3×FLAG-PI3KCA (157-299) (Homo sapiens, UniProt P01116, G12D/Q25A); construct: Avi-KRAS G12D/Q25A (1-169) GppNHp; assay: HTRF PI3KCA-KRAS G12D/Q25A-GppNHp disruption assay; conditions: 1 h incubation
Sequence (P01116 1-169 isoform P01116-2 G12D/Q25A limits assumed): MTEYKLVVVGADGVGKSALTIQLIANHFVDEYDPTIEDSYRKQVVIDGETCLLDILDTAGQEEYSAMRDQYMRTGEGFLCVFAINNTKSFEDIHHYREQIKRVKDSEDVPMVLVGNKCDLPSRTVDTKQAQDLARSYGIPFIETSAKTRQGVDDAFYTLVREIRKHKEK
Entries and their IC50 values follow.

Examples with answers:
CN1CCC[C@H]1COc1nc(NC2CNC2)c2cc(-c3ccoc3)c(-c3ccc(F)c4sc(N)nc34)c(F)c2n1 [Compound 133]: 1000 to 10000 nM
CN(c1nc(OCC23CCCN2CCC3)nc2c(F)c(-c3ccc(F)c4sc(N)nc34)c(C(F)(F)F)cc12)[C@@H]1CCN(C(N)=O)C1 (atropisomer, axis not shown) [Compound 279]: 1000 to 10000 nM
Nc1nc2c(-c3c(OC(F)(F)F)cc4c(N5CCNCC5)nc(OCC56CCCN5CCC6)nc4c3F)ccc(F)c2s1 [Compound 228]: 1000 to 10000 nM
N#Cc1c(N)sc2c(F)ccc(-c3c(C(F)(F)F)cc4c(N5CC[C@@H]6CNCC[C@@H]65)nc(OC[C@@]56CCCN5C[C@H](F)C6)nc4c3F)c12 [Compound 376]: 100 to 1000 nM
CN(c1nc(OC[C@@]23CCCN2C[C@H](F)C3)nc2c(F)c(-c3ccc(F)c4sc(N)c(C#N)c34)c(C(F)(F)F)cc12)[C@]1(C)CCNC1 [Compound 360]: 100 to 1000 nM

Next item in the queue.
Query CC(C)N1C2CCC1CN(c1nc(OC[C@@]34CCCN3C[C@H](F)C4)nc3c(F)c(-c4ccc(F)c5sc(N)nc45)c(C(F)(F)F)cc13)C2 [Compound 316] yields IC50 of 1000 to 10000 nM

###

tested on: pERK in GP2d cells (KRAS G12D); experiment: Cell-based pERK HTRF assay; details: GP2d, 1 h, 60 min incubation
Entries and their IC50 values follow.

Examples with answers:
CN1CCC[C@H]1COc1nc(NC2CNC2)c2cc(-c3ccoc3)c(-c3ccc(F)c4sc(N)nc34)c(F)c2n1 [Compound 133]: > 1 µM
CN(c1nc(OC[C@@]23CCCN2C[C@H](F)C3)nc2c(F)c(-c3ccc(F)c4sc(N)c(C#N)c34)c(F)cc12)[C@H]1CCNC1 [Compound 361]: 0.1 to 1 µM

Query CN(c1nc(OC[C@@]23CCCN2C[C@H](F)C3)nc2c(F)c(-c3ccc(F)c4sc(N)c(C#N)c34)c(C(F)(F)F)cc12)[C@H]1CNC[C@@H]1F [Compound 355] yields IC50 of ≤ 0.1 µM

Query Nc1nc2c(-c3c(C(F)(F)F)cc4c(N5CCC[C@H]6NCC[C@H]65)nc(OCC56CCCN5CCC6)nc4c3F)ccc(F)c2s1 [Compound 332] yields IC50 of 0.1 to 1 µM

Query CN(c1nc(OC[C@@]23CCCN2C[C@H](F)C3)nc2c(F)c(-c3ccc(F)c4sc(N)c(C#N)c34)c(C(F)(F)F)cc12)[C@]1(C)CCNC1 [Compound 360] yields IC50 of ≤ 0.1 µM

Query N#Cc1csc2c(F)ccc(-c3cc4nc(OC[C@@]56CCCN5C[C@H](F)C6)nc(N5CC6CCC(C5)N6)c4cc3C(F)(F)F)c12 [Compound 318] yields IC50 of 0.1 to 1 µM

Query CN(c1nc(OC[C@@]23CCCN2C[C@H](F)C3)nc2c(F)c(-c3ccc(F)c4sc(N)c(C#N)c34)c(C(F)(F)F)cc12)[C@H]1CNC[C@H]1F [Compound 353] yields IC50 of ≤ 0.1 µM
